- Test system: 5-HT2
- method.notes: Quipazine inhibition (quipazine induced head twitches in rats)
- Type: in vivo
- measurement.context: Rattus norvegicus; rats; 2 hours; sc; read-out: Quipazine inhibition 2 hours (sc) ED50
result.type: ED50 (µmol/kg)
Numbers only, in µmol/kg.

# example entries with known answers
- compound: "O=C1NCCN1CCN1CCC(c2cn(-c3ccc(F)cc3)c3ccc(Cl)cc23)CC1 [sertindole, reference compound]"
  result.type: "ED50"
  quantity.unit: "µmol/kg"
  meas.value: 0.035
- compound: "[2H]C1([2H])CNC(=O)N1CCN1CCC(c2cn(-c3ccc(F)cc3)c3ccc(Cl)cc23)CC1 [Compound 6]"
  result.type: "ED50"
  quantity.unit: "µmol/kg"
  meas.value: 0.02
- compound: "[2H]C1([2H])NC(=O)N(CCN2CCC(c3cn(-c4ccc(F)cc4)c4ccc(Cl)cc34)CC2)C1([2H])[2H] [Compound 4]"
  result.type: "ED50"
  quantity.unit: "µmol/kg"
  meas.value: 0.07

Could you now consider this next compound?
[ask] Fill in: ED50 of [2H]C1([2H])CN(CCN2CCC(c3cn(-c4ccc(F)cc4)c4ccc(Cl)cc34)CC2)C(=O)N1 [Compound 5] is ___
[reply] 0.055

---

- target.system: 5-HT2 receptors (Rattus norvegicus, UniProt P14842)
- Sequence (P14842 whole entry): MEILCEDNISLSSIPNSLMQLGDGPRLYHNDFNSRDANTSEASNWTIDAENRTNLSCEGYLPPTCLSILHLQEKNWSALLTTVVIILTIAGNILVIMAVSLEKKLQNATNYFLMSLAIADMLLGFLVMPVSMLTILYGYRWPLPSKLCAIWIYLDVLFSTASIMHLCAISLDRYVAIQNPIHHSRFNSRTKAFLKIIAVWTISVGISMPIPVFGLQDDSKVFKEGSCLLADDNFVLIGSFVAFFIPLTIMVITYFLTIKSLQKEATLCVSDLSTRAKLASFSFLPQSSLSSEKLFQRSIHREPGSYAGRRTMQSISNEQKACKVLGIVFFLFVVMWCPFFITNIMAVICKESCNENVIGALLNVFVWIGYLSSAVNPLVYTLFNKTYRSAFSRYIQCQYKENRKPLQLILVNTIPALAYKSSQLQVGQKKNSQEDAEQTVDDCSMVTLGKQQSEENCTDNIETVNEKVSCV
Label True when IC50 is strictly below 2 nM; otherwise label False.

- compound: "CC1(C)CNC(=O)N1CCN1CCC(c2cn(-c3ccc(F)cc3)c3ccc(Cl)cc23)CC1"
  assigned.class: "True"
- compound: "O=C1NC2(CCCC2)CN1CCN1CCC(c2cn(-c3ccc(F)cc3)c3ccc(Cl)cc23)CC1"
  assigned.class: "False"
- compound: "COC1CNC(=O)N1CCN1CCC(c2cn(-c3ccc(F)cc3)c3ccc(Cl)cc23)CC1 (stereo not shown)"
  assigned.class: "True"
- compound: "O=C1NCC(O)N1CCN1CCC(c2cn(-c3ccc(F)cc3)c3ccc(Cl)cc23)CC1 (stereo not shown)"
  assigned.class: "True"

[ask] Strictly below 2 nM in IC50? O=C1NC(O)C(O)N1CCN1CCC(c2cn(-c3ccc(F)cc3)c3ccc(Cl)cc23)CC1 (stereo not shown)
[reply] False

[ask] Strictly below 2 nM in IC50? "O=C1NCC2(CCCC2)N1CCN1CCC(c2cn(-c3ccc(F)cc3)c3ccc(Cl)cc23)CC1"
[reply] False

[ask] Strictly below 2 nM in IC50? "CC1(C)C(=O)NC(=O)N1CCN1CCC(c2cn(-c3ccc(F)cc3)c3ccc(Cl)cc23)CC1"
[reply] False

[ask] Strictly below 2 nM in IC50? O=C1NC(=O)N(CCN2CCC(c3cn(-c4ccc(F)cc4)c4ccc(Cl)cc34)CC2)C1O (stereo not shown)
[reply] False

[ask] Strictly below 2 nM in IC50? O=C1NC(O)C(=O)N1CCN1CCC(c2cn(-c3ccc(F)cc3)c3ccc(Cl)cc23)CC1 (stereo not shown)
[reply] False

---

- method.notes: Catalepsy in rats (vertical wire mesh)
- measurement.context: rat, in vivo, 1-6 hours, sc
result.type: ED50 at 6 h

# example entries with known answers
- compound: "O=C1NCC(O)N1CCN1CCC(c2cn(-c3ccc(F)cc3)c3ccc(Cl)cc23)CC1 (centres unmarked)"
  meas.value: "39 µmol/kg"
- compound: "O=C1NCCN1CCN1CCC(c2cn(-c3ccc(F)cc3)c3ccc(Cl)cc23)CC1 [sertindole, reference compound]"
  meas.value: "> 91 µmol/kg"
- compound: "O=C1NC2(CCCC2)CN1CCN1CCC(c2cn(-c3ccc(F)cc3)c3ccc(Cl)cc23)CC1"
  meas.value: "> 40 µmol/kg"
- compound: "[2H]C1([2H])CNC(=O)N1CCN1CCC(c2cn(-c3ccc(F)cc3)c3ccc(Cl)cc23)CC1"
  meas.value: "30 µmol/kg"
- compound: "O=C1NC(=O)N(CCN2CCC(c3cn(-c4ccc(F)cc4)c4ccc(Cl)cc34)CC2)C1O (centres unmarked)"
  meas.value: "> 21 µmol/kg"
- compound: "CC1(C)CN(CCN2CCC(c3cn(-c4ccc(F)cc4)c4ccc(Cl)cc34)CC2)C(=O)N1"
  meas.value: "> 43 µmol/kg"
- compound: "CC1(C)CNC(=O)N1CCN1CCC(c2cn(-c3ccc(F)cc3)c3ccc(Cl)cc23)CC1"
  meas.value: "> 43 µmol/kg"

Could you now consider this next compound?
[ask] Fill in: ED50 at 6 h of "[2H]C1([2H])NC(=O)N(CCN2CCC(c3cn(-c4ccc(F)cc4)c4ccc(Cl)cc34)CC2)C1([2H])[2H]" is ___
[reply] > 45 µmol/kg
